Biological target: T1, Human CD3eg linker (human)
T1 construct: single-chain construct; also called recombinant human CD3
T1 chain: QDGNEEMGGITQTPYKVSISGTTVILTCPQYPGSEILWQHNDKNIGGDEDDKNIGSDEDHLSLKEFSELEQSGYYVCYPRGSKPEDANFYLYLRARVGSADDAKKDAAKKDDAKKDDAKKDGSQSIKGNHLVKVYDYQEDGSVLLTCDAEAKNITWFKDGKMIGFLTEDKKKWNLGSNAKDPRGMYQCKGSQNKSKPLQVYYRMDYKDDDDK
Assay: SPR, vs unmutated H183/L072
What fold change of affinity was measured for each of the following?
Number only, in fold; omit the unit.

QUERY: Dear colleague, I am looking for the recorded fold change of affinity of the following binder: dBBDu183H V100iT/dBBDu072L (antibody, name in Kabat numbering, V domains shown) VH: QVQLVESGGGLVQPGRSLRLSCAASGFTFSNAWMHWVRQAPGKGLEWVAQIKDKGNAYAAYYAPSVKGRFTISRDDSKNSIYLQMNSLKTEDTAVYYCHYVHYASASTVLPAFGTDAWGQGTTVTVSS VL: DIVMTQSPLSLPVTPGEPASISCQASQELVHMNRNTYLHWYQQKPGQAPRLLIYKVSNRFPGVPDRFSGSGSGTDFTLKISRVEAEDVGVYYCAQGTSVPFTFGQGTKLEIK
RESULT: 1

QUERY: Dear colleague, I am looking for the recorded fold change of affinity of the following binder: dBBDu183H S62G/dBBDu072L (antibody, name in Kabat numbering, V domains shown) VH: QVQLVESGGGLVQPGRSLRLSCAASGFTFSNAWMHWVRQAPGKGLEWVAQIKDKGNAYAAYYAPGVKGRFTISRDDSKNSIYLQMNSLKTEDTAVYYCHYVHYASASTVLPAFGVDAWGQGTTVTVSS VL: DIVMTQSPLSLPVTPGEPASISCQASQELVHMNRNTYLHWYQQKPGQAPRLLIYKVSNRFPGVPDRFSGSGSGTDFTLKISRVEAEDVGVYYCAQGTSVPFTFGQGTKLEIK
RESULT: 1.4

QUERY: Dear colleague, I am looking for the recorded fold change of affinity of the following binder: dBBDu183H S100aK/dBBDu072L (antibody, name in Kabat numbering, V domains shown) VH: QVQLVESGGGLVQPGRSLRLSCAASGFTFSNAWMHWVRQAPGKGLEWVAQIKDKGNAYAAYYAPSVKGRFTISRDDSKNSIYLQMNSLKTEDTAVYYCHYVHYASAKTVLPAFGVDAWGQGTTVTVSS VL: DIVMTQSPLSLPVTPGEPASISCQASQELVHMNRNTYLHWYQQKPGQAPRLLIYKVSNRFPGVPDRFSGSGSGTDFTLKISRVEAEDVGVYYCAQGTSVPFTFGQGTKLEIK
RESULT: 0.9

QUERY: Dear colleague, I am looking for the recorded fold change of affinity of the following binder: dBBDu183H Y97H/dBBDu072L (antibody, name in Kabat numbering, V domains shown) VH: QVQLVESGGGLVQPGRSLRLSCAASGFTFSNAWMHWVRQAPGKGLEWVAQIKDKGNAYAAYYAPSVKGRFTISRDDSKNSIYLQMNSLKTEDTAVYYCHYVHHASASTVLPAFGVDAWGQGTTVTVSS VL: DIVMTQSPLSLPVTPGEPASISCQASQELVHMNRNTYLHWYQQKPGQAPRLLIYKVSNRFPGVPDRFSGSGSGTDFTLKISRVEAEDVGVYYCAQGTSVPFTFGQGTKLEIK
RESULT: 0

QUERY: Dear colleague, I am looking for the recorded fold change of affinity of the following binder: dBBDu183H V95H/dBBDu072L (antibody, name in Kabat numbering, V domains shown) VH: QVQLVESGGGLVQPGRSLRLSCAASGFTFSNAWMHWVRQAPGKGLEWVAQIKDKGNAYAAYYAPSVKGRFTISRDDSKNSIYLQMNSLKTEDTAVYYCHYHHYASASTVLPAFGVDAWGQGTTVTVSS VL: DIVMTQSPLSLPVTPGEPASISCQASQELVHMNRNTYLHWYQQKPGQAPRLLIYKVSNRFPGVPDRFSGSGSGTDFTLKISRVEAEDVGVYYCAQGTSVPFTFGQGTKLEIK
RESULT: 0

QUERY: Dear colleague, I am looking for the recorded fold change of affinity of the following binder: dBBDu183H H93V/dBBDu072L (antibody, name in Kabat numbering, V domains shown) VH: QVQLVESGGGLVQPGRSLRLSCAASGFTFSNAWMHWVRQAPGKGLEWVAQIKDKGNAYAAYYAPSVKGRFTISRDDSKNSIYLQMNSLKTEDTAVYYCVYVHYASASTVLPAFGVDAWGQGTTVTVSS VL: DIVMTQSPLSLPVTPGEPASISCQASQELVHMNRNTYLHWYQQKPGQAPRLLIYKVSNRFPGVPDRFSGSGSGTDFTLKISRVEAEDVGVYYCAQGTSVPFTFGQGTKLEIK
RESULT: 0

QUERY: Dear colleague, I am looking for the recorded fold change of affinity of the following binder: dBBDu183H L100dF/dBBDu072L (antibody, name in Kabat numbering, V domains shown) VH: QVQLVESGGGLVQPGRSLRLSCAASGFTFSNAWMHWVRQAPGKGLEWVAQIKDKGNAYAAYYAPSVKGRFTISRDDSKNSIYLQMNSLKTEDTAVYYCHYVHYASASTVFPAFGVDAWGQGTTVTVSS VL: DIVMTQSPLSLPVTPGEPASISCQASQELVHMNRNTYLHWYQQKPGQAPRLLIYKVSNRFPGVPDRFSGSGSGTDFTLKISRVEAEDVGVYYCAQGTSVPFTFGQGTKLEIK
RESULT: 1.3

QUERY: Dear colleague, I am looking for the recorded fold change of affinity of the following binder: dBBDu183H T100bK/dBBDu072L (antibody, name in Kabat numbering, V domains shown) VH: QVQLVESGGGLVQPGRSLRLSCAASGFTFSNAWMHWVRQAPGKGLEWVAQIKDKGNAYAAYYAPSVKGRFTISRDDSKNSIYLQMNSLKTEDTAVYYCHYVHYASASKVLPAFGVDAWGQGTTVTVSS VL: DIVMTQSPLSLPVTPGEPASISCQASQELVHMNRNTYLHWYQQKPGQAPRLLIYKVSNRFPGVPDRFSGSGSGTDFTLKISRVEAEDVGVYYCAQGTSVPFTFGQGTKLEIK
RESULT: 1.3

QUERY: Dear colleague, I am looking for the recorded fold change of affinity of the following binder: dBBDu183H L100dT/dBBDu072L (antibody, name in Kabat numbering, V domains shown) VH: QVQLVESGGGLVQPGRSLRLSCAASGFTFSNAWMHWVRQAPGKGLEWVAQIKDKGNAYAAYYAPSVKGRFTISRDDSKNSIYLQMNSLKTEDTAVYYCHYVHYASASTVTPAFGVDAWGQGTTVTVSS VL: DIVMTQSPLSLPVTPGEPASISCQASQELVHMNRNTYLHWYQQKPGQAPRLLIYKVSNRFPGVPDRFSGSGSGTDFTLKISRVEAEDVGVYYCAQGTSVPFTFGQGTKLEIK
RESULT: 1.3

QUERY: Dear colleague, I am looking for the recorded fold change of affinity of the following binder: dBBDu183H T100bW/dBBDu072L (antibody, name in Kabat numbering, V domains shown) VH: QVQLVESGGGLVQPGRSLRLSCAASGFTFSNAWMHWVRQAPGKGLEWVAQIKDKGNAYAAYYAPSVKGRFTISRDDSKNSIYLQMNSLKTEDTAVYYCHYVHYASASWVLPAFGVDAWGQGTTVTVSS VL: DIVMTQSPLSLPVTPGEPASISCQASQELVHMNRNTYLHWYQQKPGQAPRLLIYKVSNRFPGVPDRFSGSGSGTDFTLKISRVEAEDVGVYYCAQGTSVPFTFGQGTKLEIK
RESULT: 1.8
